- assayed_system: chymotrypsin (Bos taurus)
- test_details: Chymotrypsin inhibitive activity (method of Muramatsu et al., acetyl-L-tyrosine ethyl ester substrate, Hestrin Method)
- Format: biochemical
- reported_conditions: pH 8.0 tris-hydrochloric acid buffer, 10 minutes preincubation, 30° C., 30 minutes, absorbance at 530 nm, read-out: Chymotrypsin inhibitive activity [50% inhibition concentration (M)]
property_name: IC50 (M)

CCN1CCN(C(=O)c2ccc(OC(=O)C3CCCc4ccccc43)cc2)CC1 (centres unmarked) [Example 68]: 9e-07
CC(C)N1CCN(C(=O)c2ccc(OC(=O)C3CCCc4ccccc43)cc2)CC1 (centres unmarked) [Example 67]: 8e-07

I = CC(C)N1CCN(C(=O)c2ccc(OC(=O)CC3c4ccccc4-c4ccccc43)cc2)CC1 [Example 40]
II = CC(C)N1CCN(C(=O)c2ccc(OC(=O)C=C3c4ccccc4-c4ccccc43)cc2)CC1 [Example 2]
III = CC(C)N1CCN(C(=O)c2ccc(OC(=O)Cc3cccc4c3CCCC4)cc2)CC1 [Example 1]
Request: Sort these compounds on IC50 so the largest reading comes first. Your task in answering is to list the labels in the requested order.
Response: III, I, II
(III: 3e-06 M, I: 1e-06 M, II: 1e-07 M)
